target entity: ERα (Homo sapiens, UniProt P03372)
Sequence (P03372 whole entry): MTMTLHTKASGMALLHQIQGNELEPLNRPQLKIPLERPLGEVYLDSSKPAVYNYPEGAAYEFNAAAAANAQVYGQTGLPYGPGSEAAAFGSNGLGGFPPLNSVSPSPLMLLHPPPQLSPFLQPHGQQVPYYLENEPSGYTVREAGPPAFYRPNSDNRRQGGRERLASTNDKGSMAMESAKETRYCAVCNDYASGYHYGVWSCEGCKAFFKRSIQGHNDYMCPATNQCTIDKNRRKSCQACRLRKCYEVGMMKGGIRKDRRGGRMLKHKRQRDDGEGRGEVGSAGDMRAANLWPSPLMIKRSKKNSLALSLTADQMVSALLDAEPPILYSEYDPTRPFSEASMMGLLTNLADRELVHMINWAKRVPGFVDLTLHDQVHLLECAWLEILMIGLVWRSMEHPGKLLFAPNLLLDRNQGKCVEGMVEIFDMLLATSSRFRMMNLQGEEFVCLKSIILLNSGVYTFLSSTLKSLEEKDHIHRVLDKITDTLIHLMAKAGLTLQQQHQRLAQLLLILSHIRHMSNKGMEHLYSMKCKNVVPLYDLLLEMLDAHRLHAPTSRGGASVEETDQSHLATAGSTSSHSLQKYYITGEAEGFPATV
procedure summary: ERα degradation in T-47D cells (Western blot)
Assay type: cell-based
stated conditions: 1nM, 4 hours
Procedure: Western blotting: The total protein concentration in the collected cell lysate supernatant was determined using the BCA protein concentration assay kit (enhanced) (P0009, Beyotime). Based on the total protein concentration determined by BCA, the protein concentration was adjusted to 1 µg/µL using RIPA lysis buffer and 5× SDS-PAGE protein loading buffer (MB01015, GenScript). […] Protein maps were analyzed for grayscale value using Image Studio Lite software. […]
measure name: Degradation rate of ERα in T-47D cells (%)
Kindly format the answer as number then unit.

Below: 4 molecules and their reported Degradation rate of ERα in T-47D cells (%).
- molecule: "Cn1c(=O)n(C2CCC(=O)NC2=O)c2cc3c(cc21)C1(CCN(C2CCC4(CC2)CCN(c2ccc([C@@H]5c6ccc(O)cc6CC[C@@H]5c5ccccc5)cc2)CC4)CC1)CO3 (some centres unmarked) [ER-P-60]"
  target entity: "ERα (Homo sapiens, UniProt P03372)"
  observed: "21%"
- molecule: "Cn1c(=O)n(C2CCC(=O)NC2=O)c2ccc3c(c21)OCC31CCN(C2CCN(C(=O)C3CCN(c4ccc([C@@H]5c6ccc(O)cc6CC[C@@H]5c5ccccc5)cc4)CC3)CC2)CC1 (some centres unmarked) [ER-P-13]"
  target entity: "ERα (Homo sapiens, UniProt P03372)"
  observed: "79%"
- molecule: "Cn1c(=O)n(C2CCC(=O)NC2=O)c2ccc3c(c21)OCC31CCN(C(=O)C2CN(CC3CCN(c4ccc([C@@H]5c6ccc(O)cc6CC[C@@H]5c5ccccc5)cc4)CC3)C2)CC1 (some centres unmarked) [ER-P-25]"
  target entity: "ERα (Homo sapiens, UniProt P03372)"
  observed: "77%"
- molecule: "O=C1CCC(Nc2ccc3c(c2)OC[C@@H]2CN(C4CCC5(CC4)CN(c4ccc([C@@H]6c7ccc(O)cc7CC[C@@H]6c6ccccc6)cc4)C5)CCN32)C(=O)N1 (some centres unmarked) [ER-P-36]"
  target entity: "ERα (Homo sapiens, UniProt P03372)"
  observed: "0%"

Then there is this molecule:
Returns the measured Degradation rate of ERα in T-47D cells (%) for the input molecule. Input: C[C@@H]1Cc2cc(O)ccc2C(c2c(F)cc(N3CCC4(CCC(N5CCC6(CC5)COc5c6ccc6c5n(C)c(=O)n6C5CCC(=O)NC5=O)CC4)CC3)cc2F)N1CC(F)F (some centres unmarked) [ER-P-29] 53%

Reference source for all entries: patent EP4722219A1
